TARGET OR SYSTEM: UL54 (Human cytomegalovirus, UniProt P08546)
Sequence (P08546 whole entry): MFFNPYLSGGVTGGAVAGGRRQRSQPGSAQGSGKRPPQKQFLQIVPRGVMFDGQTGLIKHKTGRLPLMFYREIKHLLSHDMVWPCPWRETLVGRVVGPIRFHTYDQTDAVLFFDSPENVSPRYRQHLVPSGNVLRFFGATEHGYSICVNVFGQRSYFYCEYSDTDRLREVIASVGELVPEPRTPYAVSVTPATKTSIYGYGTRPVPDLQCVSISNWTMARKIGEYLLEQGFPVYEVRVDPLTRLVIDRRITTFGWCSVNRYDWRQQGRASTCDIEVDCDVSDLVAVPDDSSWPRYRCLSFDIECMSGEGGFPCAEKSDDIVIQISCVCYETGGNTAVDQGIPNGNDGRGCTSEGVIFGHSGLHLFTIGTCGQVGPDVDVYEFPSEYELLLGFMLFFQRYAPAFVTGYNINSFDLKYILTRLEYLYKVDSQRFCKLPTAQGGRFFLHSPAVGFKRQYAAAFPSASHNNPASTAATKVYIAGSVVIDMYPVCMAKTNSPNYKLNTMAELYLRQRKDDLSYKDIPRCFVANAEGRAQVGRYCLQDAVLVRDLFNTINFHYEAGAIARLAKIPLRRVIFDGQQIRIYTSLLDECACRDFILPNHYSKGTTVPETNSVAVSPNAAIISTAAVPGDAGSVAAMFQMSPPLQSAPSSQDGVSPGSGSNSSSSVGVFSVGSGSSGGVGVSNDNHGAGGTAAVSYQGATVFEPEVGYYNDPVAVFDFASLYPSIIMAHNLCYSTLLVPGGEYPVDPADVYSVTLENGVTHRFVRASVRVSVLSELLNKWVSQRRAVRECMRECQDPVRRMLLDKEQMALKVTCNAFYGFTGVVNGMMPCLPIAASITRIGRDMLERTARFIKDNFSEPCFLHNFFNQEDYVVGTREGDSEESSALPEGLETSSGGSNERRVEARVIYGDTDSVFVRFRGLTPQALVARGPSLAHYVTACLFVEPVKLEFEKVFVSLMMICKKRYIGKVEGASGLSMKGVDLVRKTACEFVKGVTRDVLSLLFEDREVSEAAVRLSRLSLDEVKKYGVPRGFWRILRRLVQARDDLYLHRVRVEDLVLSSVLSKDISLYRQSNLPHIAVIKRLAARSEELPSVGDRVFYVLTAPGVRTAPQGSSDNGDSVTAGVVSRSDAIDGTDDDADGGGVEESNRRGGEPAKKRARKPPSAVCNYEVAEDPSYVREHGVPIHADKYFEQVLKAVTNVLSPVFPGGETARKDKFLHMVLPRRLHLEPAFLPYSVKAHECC
pIC50: −log10 of the molar value.

- MOLECULAR STRING: "CSc1scc2c1C(=O)C(=CN(C)C)CC2"
  pIC50: "< 4.00"

----------
TARGET OR SYSTEM: UL44 binding to full-length UL54 (Human cytomegalovirus)
Sequence (P16790 1-290): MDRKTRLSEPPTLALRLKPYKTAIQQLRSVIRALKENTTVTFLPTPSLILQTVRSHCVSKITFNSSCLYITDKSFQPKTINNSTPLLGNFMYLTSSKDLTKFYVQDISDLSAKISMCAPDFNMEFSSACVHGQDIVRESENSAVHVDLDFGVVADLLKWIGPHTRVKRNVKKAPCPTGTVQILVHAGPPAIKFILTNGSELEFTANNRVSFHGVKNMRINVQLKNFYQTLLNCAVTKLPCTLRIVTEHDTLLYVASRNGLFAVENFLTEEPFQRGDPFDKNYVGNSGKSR
PROCEDURE DETAILS: UL54−UL44 interaction assay by biolayer interferometry

- MOLECULAR STRING: "CSc1scc2c1C(=O)C(=CN(C)C)CC2"
  TARGET OR SYSTEM: "UL44 binding to full-length UL54 (Human cytomegalovirus)"
  IC50 / µM: 4.5

----------
TARGET OR SYSTEM: UL42−P30 interaction (Human herpesvirus 1, UniProt P10226)
Sequence (P10226 whole entry): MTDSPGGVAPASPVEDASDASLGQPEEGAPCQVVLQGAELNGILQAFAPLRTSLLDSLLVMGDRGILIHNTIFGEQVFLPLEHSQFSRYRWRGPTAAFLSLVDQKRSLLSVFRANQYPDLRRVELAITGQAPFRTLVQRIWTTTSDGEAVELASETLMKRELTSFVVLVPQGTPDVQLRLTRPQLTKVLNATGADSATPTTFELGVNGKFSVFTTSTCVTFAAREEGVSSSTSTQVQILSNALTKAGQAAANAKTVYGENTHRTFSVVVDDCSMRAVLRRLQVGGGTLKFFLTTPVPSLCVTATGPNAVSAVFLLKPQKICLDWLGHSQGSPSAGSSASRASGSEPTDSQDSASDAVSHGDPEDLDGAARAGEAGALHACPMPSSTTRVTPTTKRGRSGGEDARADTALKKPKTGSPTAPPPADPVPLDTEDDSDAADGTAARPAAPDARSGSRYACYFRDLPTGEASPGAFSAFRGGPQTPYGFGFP
PROCEDURE DETAILS: FP assay of UL42−P30 interaction

- COMPOUND: "CSc1scc2c1C(=O)C(=CN(C)C)CC2 [SGM8]"
  IC50: "~20 µM"

----------
TARGET OR SYSTEM: UL54/UL44 DNA polymerase (Human cytomegalovirus, UniProt P16790)
PROCEDURE DETAILS: Long-chain DNA synthesis by UL54−UL44
pIC50: −log10 of the molar value.
VALUE KIND: pIC50

- COMPOUND: "CSc1scc2c1C(=O)C(=CN(C)C)CC2 [SGM8]"
  VALUE KIND: "pIC50"
  MEAS VALUE: 5.49

Hey, just so you know, these numbers are from paper PMC5480311.
